src = ChEMBL document CHEMBL1961873

targetOrTestSystem: Inhibitor of nuclear factor kappa-B kinase subunit alpha (Homo sapiens);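 also: mean inhibition of IKKA, from the GSK PKIS data set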
setupConditions: at 1 µM
quantityName: inhibition (%)
Give your result in % as a bare value.

Please review the entries below; each comes with its answer.
CCCNc1cccc(-n2ncc3c(N/N=C/c4ccncc4)ncnc32)c1: 0.68
O=C(O[C@H]1CN[C@H](C#Cc2cc3ncnc(Nc4ccc5c(ccn5Cc5cc(F)ccc5F)c4)c3s2)C1)N1CCOCC1: 10.1
Cc1cc(O)cc(C)c1/C=C/c1cncc(C(=O)OC(C)(C)C)c1: 1.81

Field inhibition (entry CS(=O)(=O)CCNCc1ccc(-c2ccc3ncnc(Nc4ccc(OCc5cccc(C(F)(F)F)c5)cc4)c3c2)o1 ) reads 4.53

Field inhibition (entry Cc1c2ccc(N(C)c3ccnc(Nc4cccc(S(N)(=O)=O)c4)n3)cc2nn1C ) reads 3.93

Field inhibition (entry NS(=O)(=O)c1ccc(N/N=C2\C(=O)Nc3ccc(C(=O)NCc4ccncc4)cc32)cc1 ) reads 0.67

Field inhibition (entry COC(=O)Nc1nc2cc(Oc3ccc(NC(=O)Nc4ccccc4)cc3)ccc2[nH]1 ) reads 8.6

Field inhibition (entry CC1=C(C(=O)Nc2ccc3[nH]ncc3c2)C(c2ccc(F)cc2)N=C(c2ccc(C(F)(F)F)nc2)N1 (centres undefined) ) reads -0.7

Field inhibition (entry COc1cccc(-n2ncc3c(N/N=C/c4ccc(C(=O)NCCN(C)C)cc4)ncnc32)c1 ) reads 4.43

----------
targetOrTestSystem: Serine/threonine-protein kinase PAK 3 (Homo sapiens);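 also: mean percent inhibition of PAK3, measured in a screen of the GSK published kinase inhibitor set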
setupConditions: at 0.1 µM
quantityName: inhibition (%)
Give your result in % as a bare value.

Please review the entries below; each comes with its answer.
CCS(=O)(=O)c1ccc(OC)c(Nc2ncc(-c3cccc(C(C)=O)c3)o2)c1: -0.54
O=C1Nc2ccccc2/C1=C1\CCc2cc(O)ccc21: 5.7

Kindly review the next compound as well.
Field inhibition (entry COc1ccc2ncn(-c3cc(O[C@H](C)c4ccccc4C(F)(F)F)c(C(N)=O)s3)c2c1 ) reads -2.52

----------
targetOrTestSystem: Ephrin type-A receptor 2 (Homo sapiens) (UniProt P29317);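 also: reported values are mean percent inhibition of EPHA2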
Sequence (P29317 whole entry): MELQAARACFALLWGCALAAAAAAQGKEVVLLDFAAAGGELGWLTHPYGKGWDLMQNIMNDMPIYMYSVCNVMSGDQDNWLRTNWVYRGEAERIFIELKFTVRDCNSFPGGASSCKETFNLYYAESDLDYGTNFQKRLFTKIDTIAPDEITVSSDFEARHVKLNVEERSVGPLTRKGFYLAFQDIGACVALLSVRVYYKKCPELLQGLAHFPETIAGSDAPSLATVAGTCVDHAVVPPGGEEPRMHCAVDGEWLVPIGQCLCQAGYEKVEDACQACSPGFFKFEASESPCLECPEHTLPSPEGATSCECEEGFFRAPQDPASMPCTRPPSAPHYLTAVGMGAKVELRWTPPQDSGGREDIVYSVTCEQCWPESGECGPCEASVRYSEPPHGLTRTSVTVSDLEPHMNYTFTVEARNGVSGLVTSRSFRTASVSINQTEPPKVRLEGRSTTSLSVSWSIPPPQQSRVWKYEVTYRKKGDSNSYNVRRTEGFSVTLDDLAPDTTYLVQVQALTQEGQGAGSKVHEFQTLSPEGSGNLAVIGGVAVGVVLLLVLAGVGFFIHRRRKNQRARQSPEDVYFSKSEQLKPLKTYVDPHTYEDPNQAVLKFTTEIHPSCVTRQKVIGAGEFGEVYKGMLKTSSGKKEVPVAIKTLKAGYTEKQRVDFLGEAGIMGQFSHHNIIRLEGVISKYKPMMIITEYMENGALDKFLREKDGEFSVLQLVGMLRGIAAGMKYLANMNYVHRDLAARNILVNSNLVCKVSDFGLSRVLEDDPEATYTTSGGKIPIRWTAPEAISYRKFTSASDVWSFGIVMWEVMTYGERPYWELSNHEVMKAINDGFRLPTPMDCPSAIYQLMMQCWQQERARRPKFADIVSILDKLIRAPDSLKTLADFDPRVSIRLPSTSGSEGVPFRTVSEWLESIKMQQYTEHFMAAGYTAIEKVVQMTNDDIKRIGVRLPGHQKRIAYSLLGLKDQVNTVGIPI
setupConditions: at 0.1 µM
quantityName: inhibition (%)
Give your result in % as a bare value.

CCOc1ccc2c(-c3ccnc(Nc4cc(OC)cc(C(F)(F)F)c4)n3)cnn2n1: -2.58
COc1cc(N2CCN(C(C)C)CC2)ccc1Nc1nc(Nc2cccc(F)c2C(=O)O)c2cc[nH]c2n1: 0.65
N#Cc1cccc(Nc2ncc(-c3ccccc3)o2)c1: 1.14

Field inhibition (entry NC(=O)c1ccc2c(-c3ccnc(NCCCO)n3)c(-c3ccc(F)cc3)nn2c1 ) reads 2.54

Field inhibition (entry CC1=C(C(=O)Nc2ccc3[nH]ncc3c2)C(c2ccc(F)cc2)N=C(c2ccc(C(F)(F)F)nc2)N1 (stereo not given) ) reads -1.16

Field inhibition (entry Cc1cc(O)cc(C)c1/C=C/c1cncc(C(N)=O)c1 ) reads 8.68

----------
targetOrTestSystem: Phosphatidylinositol 4,5-bisphosphate 3-kinase catalytic subunit delta isoform (Homo sapiens);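 also: reported values are mean percent inhibition of PI3K-delta activity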
Sequence (whole entry): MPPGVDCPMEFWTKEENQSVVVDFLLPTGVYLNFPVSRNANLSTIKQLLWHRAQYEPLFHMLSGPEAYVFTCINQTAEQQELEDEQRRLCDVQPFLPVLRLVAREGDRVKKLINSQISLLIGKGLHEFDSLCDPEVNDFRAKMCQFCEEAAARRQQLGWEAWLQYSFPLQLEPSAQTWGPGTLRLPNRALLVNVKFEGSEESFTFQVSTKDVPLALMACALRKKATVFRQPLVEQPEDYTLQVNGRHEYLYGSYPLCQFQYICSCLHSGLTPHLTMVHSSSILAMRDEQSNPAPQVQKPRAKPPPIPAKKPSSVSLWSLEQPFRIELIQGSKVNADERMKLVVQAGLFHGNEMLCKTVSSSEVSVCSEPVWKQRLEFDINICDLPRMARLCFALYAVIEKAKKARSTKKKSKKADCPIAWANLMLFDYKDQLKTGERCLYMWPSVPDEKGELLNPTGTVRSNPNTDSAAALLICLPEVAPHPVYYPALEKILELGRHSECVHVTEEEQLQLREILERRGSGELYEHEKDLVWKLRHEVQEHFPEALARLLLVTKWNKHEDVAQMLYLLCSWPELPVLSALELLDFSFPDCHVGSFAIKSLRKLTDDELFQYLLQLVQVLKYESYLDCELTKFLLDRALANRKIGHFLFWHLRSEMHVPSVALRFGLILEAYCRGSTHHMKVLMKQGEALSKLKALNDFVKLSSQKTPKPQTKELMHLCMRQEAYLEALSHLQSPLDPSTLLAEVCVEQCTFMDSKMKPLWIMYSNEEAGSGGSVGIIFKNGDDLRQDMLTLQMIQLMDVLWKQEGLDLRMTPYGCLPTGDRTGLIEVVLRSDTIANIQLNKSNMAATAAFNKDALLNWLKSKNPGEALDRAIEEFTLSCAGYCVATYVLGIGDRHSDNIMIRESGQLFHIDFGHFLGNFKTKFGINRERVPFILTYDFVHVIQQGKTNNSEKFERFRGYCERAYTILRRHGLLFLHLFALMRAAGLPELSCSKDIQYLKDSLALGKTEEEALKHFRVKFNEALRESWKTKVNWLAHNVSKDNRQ
setupConditions: at 1 µM
quantityName: inhibition
Give me the value, and tack the unit on after it.

Please review the entries below; each comes with its answer.
CCn1c(-c2nonc2N)nc2cncc(C(=O)NCCNC)c21: 1.82%
N#Cc1ccc2c(-c3ccnc(NC4CC4)n3)c(-c3ccc(F)cc3)nn2c1: -0.14%
O=C1Nc2ccccc2/C1=C1\CCc2cc(O)ccc21: 5.45%
Cc1ccc(-c2cc3c(NC(=O)C4CC4)ncnc3o2)cc1: 3.33%

Kindly review the next compound as well.
Field inhibition (entry NS(=O)(=O)c1ccc(N/N=C2\C(=O)Nc3ccc(C(=O)NCc4ccncc4)cc32)cc1 ) reads 0.37%

----------
targetOrTestSystem: Ribosomal protein S6 kinase alpha-6 (Homo sapiens) (UniProt Q9UK32);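 also: reported value is the mean inhibition of RSK4, from the GSK PKIS kinase inhibitor screen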
Sequence (Q9UK32 whole entry): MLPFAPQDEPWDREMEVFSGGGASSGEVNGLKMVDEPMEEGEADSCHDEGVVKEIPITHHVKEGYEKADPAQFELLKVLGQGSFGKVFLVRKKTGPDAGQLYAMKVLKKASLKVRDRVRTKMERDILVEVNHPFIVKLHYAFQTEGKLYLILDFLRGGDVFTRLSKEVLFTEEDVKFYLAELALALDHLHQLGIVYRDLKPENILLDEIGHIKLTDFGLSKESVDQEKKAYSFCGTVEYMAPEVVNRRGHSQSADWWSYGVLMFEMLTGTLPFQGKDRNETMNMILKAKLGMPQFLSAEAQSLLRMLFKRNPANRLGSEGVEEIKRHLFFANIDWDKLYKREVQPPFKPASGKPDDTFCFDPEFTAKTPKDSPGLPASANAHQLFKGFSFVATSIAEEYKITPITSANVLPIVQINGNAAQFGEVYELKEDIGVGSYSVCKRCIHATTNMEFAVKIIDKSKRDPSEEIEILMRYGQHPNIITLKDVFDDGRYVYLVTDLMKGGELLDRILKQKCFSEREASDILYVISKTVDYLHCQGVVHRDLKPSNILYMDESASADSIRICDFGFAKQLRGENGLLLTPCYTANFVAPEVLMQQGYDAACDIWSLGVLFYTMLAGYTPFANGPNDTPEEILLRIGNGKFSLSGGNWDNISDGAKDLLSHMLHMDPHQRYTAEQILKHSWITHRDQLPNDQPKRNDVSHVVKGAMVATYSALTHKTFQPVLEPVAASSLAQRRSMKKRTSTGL
setupConditions: at 0.1 µM
quantityName: inhibition (%)
Give your result in % as a bare value.

Please review the entries below; each comes with its answer.
Cc1nnc(-c2cccc(-c3ccc(C(=O)NCC4CC4)cc3)c2)o1: 2.12
NC(=O)c1ccc2c(-c3ccnc(NCCCO)n3)c(-c3ccc(F)cc3)nn2c1: 2.24
Cc1ccc(-c2cc3c(NC(=O)C4CC4)ncnc3o2)cc1: 0.9
COc1cc2c(cc1Nc1nc(Nc3cccc(F)c3C(N)=O)c3cc[nH]c3n1)N(C(=O)CN1CCN(C(C)C)CC1)CC2: 3.57

Kindly review the next compound as well.
Entry O=C1Nc2ccccc2/C1=C1\CCc2cc(O)ccc21 ; assay system Ribosomal protein S6 kinase alpha-6 (Homo sapiens) (UniProt Q9UK32); inhibition recorded at 7.24

----------
targetOrTestSystem: Testis-specific serine/threonine-protein kinase 2 (Homo sapiens);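 also: each value is the mean percent inhibition of TSSK2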
setupConditions: at 1 µM
quantityName: inhibition (%)
Give your result in % as a bare value.

Please review the entries below; each comes with its answer.
N#Cc1ccc2c(-c3ccnc(NC4CC4)n3)c(-c3ccc(F)cc3)nn2c1: -0.63
Cc1cc(O)cc(C)c1/C=C/c1cncc(C(N)=O)c1: -0.39
CN(C)CCNC(=O)Nc1ccc(N(C)c2ccnc(Nc3ccc(CS(C)(=O)=O)cc3)n2)cc1: -1.45
O=C1Nc2ccccc2/C1=C1\CCc2cc(O)ccc21: 2.14

Kindly review the next compound as well.
Entry COc1ccccc1-c1cc(/C=C2\C(=O)Nc3ncc(Br)cc32)cc(Br)c1O ; assay system Testis-specific serine/threonine-protein kinase 2 (Homo sapiens); inhibition recorded at 1.91

----------
inhibition by entry:
targetOrTestSystem: Homeodomain-interacting protein kinase 1 (Homo sapiens);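 also: each value is a mean percent inhibition of HIPK1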
setupConditions: at 0.1 µM
Give your result in % as a bare value.

Please review the entries below; each comes with its answer.
N#Cc1ccc2c(-c3ccnc(NC4CC4)n3)c(-c3ccc(F)cc3)nn2c1: -2.11
COc1cc(Nc2ncc(-c3ccccc3)o2)cc(OC)c1: 1.55
COc1ccc2ncn(-c3cc(O[C@H](C)c4ccccc4C(F)(F)F)c(C(N)=O)s3)c2c1: -2.12
O=C1Nc2ccccc2/C1=C1\CCc2cc(O)ccc21: -1.14

Field inhibition (entry CS(=O)(=O)CCNCc1ccc(-c2ccc3ncnc(Nc4ccc(OCc5cccc(C(F)(F)F)c5)cc4)c3c2)o1 ) reads -0.56

----------
targetOrTestSystem: Tyrosine-protein kinase receptor UFO (Homo sapiens)
setupConditions: at 1 µM
Description: GSK_PKIS: AXL mean inhibition at 1 uM [Nanosyn]
inhibition by entry:
Give your result in % as a bare value.

Please review the entries below; each comes with its answer.
COc1c(C(N)=O)cc(-c2ccc(Cl)cc2)cc1-c1ccc(S(N)(=O)=O)cc1: -6.03
FC(F)(F)CNc1nccc(-c2cnn3ncccc23)n1: -3.11
c1ccc(-c2n[nH]cc2-c2ccnc(-c3ccc(OCCn4ccnc4)cc3)c2)nc1: -0.26
CCCNc1cccc(-n2ncc3c(N/N=C/c4ccncc4)ncnc32)c1: 13.2
Cn1c(-c2nonc2N)nc2cnccc21: -1.86
CC1=C(C(=O)Nc2ccc3[nH]nc(C)c3c2)C(c2ccc(C(F)(F)F)cc2)CC(=O)N1 (stereo not given): -6.56
CN(C)CCNC(=O)Nc1ccc(N(C)c2ccnc(Nc3ccc(CS(C)(=O)=O)cc3)n2)cc1: -0.6
COc1ccc2ncn(-c3cc(O[C@H](C)c4ccccc4C(F)(F)F)c(C(N)=O)s3)c2c1: 1.8
CN1CCC(n2cnc(-c3ccc(F)cc3)c2-c2ccnc(NCCO)n2)CC1: -5.39

Kindly review the next compound as well.
Entry O=C(Nc1n[nH]c2nnc(-c3cccnc3)cc12)C1CC1 ; assay system Tyrosine-protein kinase receptor UFO (Homo sapiens); inhibition recorded at 1.65
